All figures here come from the supplement of paper PMC4466140.

target: SpHof1-3; experiment: SPOT peptide array binding signal intensity (averaged, normalized) (arbitrary units (background-subtracted, floor 0; scale differs between SH3 domains)); higher = stronger binding of the SH3 domain to the peptide
# SPOT peptide array binding signal intensity >= 400 gives true, anything below gives false

# Binder, Classification
data = [
    ("KKEKKPPKIPKKVYT", "false"),
    ("KTRLRPAFIQQLWSS", "true"),
    ("TTNRGPPPLPPRANV", "false"),
    ("NRARYLPQNPDIIAG", "false"),
    ("LKPPIGRPPKFPKSP", "false"),
    ("TIRRRAPLSLLESHT", "true"),
    ("GKLKHIPRRPYEIER", "false"),
    ("LLIRWLILMPLVGSR", "true"),
    ("VLRFLGFPLPIFEKG", "true"),
    ("GAGERPRLVPRPINV", "false"),
    ("NNNKMRPHLPPLSSG", "true"),
    ("NQARKPFLLPATELS", "true"),
    ("NLDRSKISLPDFDDE", "false"),
    ("EVTPKVPERPSRRKT", "false"),
    ("GDHPKGPPPPPPPDE", "false"),
    ("QGYPRQPQRPQRYHP", "false"),
    ("RKQRSIPLSPIVPES", "false"),
    ("FIRKRAPTPPAPSRS", "true"),
    ("QTREPNEPPPPSPAM", "false"),
    ("YRRKSIPFAPHQITA", "false"),
    ("RKRRTHLRLPLIRSN", "true"),
    ("HVRRSILALPLGVLL", "false"),
    ("RSVKRPRRAPRPVVS", "true"),
    ("NRLRKRLNLPSEISI", "true"),
    ("SGVRLPAPPPPPRRG", "true"),
    ("NFFRKKLGIPRKLKR", "true"),
    ("QPQRTAPKPPISAPR", "false"),
    ("MSPLGAPPPPPHKDH", "false"),
]
